Reference source: ChEMBL document CHEMBL4145533

The following compounds are shown together with reported IC50 values.
- Test system: NCI-H1975
- protocol_details: Antiproliferative activity against human NCI-H1975 cells harboring EGFR L858R/T790M double mutant after 72 hrs by MTT assay
- Format: functional, cell-based
- conditions_used: NCI-H1975, 72 h
Respond with a number, then the unit of measure.

{"columns": ["record_smiles", "target_entity", "observable", "recorded_result"],
 "data": [
  ["C#Cc1cccc(Nc2ncnc3cc(OCCN4CCOCC4)c(OCCN4CCOCC4)cc23)c1", "NCI-H1975", "IC50", "23.1 µM"],
  ["CS(=O)(=O)CCNCc1ccc(-c2ccc3ncnc(Nc4ccc(OCc5cccc(F)c5)c(Cl)c4)c3c2)o1", "NCI-H1975", "IC50", "12.7 µM"]
]}

[ask] Could you share which IC50 value was measured for C/C=C/c1ccc(Nc2ncnc3cc(OCCCN4CCOCC4)c(OCCCN4CCOCC4)cc23)cc1 ?
[reply] 5.53 µM

[ask] Could you share which IC50 value was measured for Fc1ccc(Nc2ncnc3cc(OCCN4CCOCC4)c(OCCN4CCOCC4)cc23)cc1Cl ?
[reply] 20.4 µM
